Data provenance: patent US20220204611A1

Molecular target: T1, human TREM2 (human, UniProt Q9NZC2 19-174, limits assumed)
T1 sequence: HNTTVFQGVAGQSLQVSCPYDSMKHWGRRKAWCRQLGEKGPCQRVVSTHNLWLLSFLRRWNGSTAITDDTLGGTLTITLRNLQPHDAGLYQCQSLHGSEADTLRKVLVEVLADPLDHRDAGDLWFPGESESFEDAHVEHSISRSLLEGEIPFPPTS
Test: yeast-displayed Fab FACS, 1st screen 110 nM
Classify by measured binding signal fold over 6E7 parental: MET if it is equal to or exceeds 0.5 fold, NOT MET if it is smaller.

Use the examples below as a reference point.
V42 (Fab, V domains shown) VH: EVQLVQSGAEVKKPGESLKISCKGSGYSFTSAWIAWVRQMPGKGLEWMGIIYPGDSDTRYSPSFQGQVTISADKSISTAYLQWSSLKASDTAMYFCARQRTFYYDSSDYFDYWGQGTLVTVSS VL: DIQMTQSPSSVSASVGDRVTITCRASQGISSWLAWYQQKPGKAPKLLIYAASSLQNGVPSRFSGSGSGTDFTLTISSLQPEDFATYFCQQADSFPRTFGQGTKLEIK = NOT MET
V81 (Fab, V domains shown) VH: EVQLVQSGAEVKKPGESLKISCKGSGYSFTSYWIAWVRQMPGKGLEWMGIIYPGDSDTRYSPSFQGQVTISADKSISTAYLQWSSLKASDTAMYFCARQRTFYYDSSDYFDYWGQGTLVTVSS VL: DIQMTQSPSSVSASVGDRVTITCRASQGISSLLAWYQQKPGKAPKLLIYAASSLQNGVPSRFSGSGSGTDFTLTISSLQPEDFATYFCQQADSFPRTFGQGTKLEIK = NOT MET
V91 (Fab, V domains shown) VH: EVQLVQSGAEVKKPGESLKISCKGSGYSFTSYWIAWVRQMPGKGLEWMGIIYPDDSDTRYSPSFQGQVTISADKSISTAYLQWSSLKASDTAMYFCARQRTFYYDSSDYFDYWGQGTLVTVSS VL: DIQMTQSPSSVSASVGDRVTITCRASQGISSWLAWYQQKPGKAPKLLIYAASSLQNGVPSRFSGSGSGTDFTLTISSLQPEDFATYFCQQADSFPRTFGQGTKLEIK = NOT MET

Query string: Would you say V90 (Fab, V domains shown) VH: EVQLVQSGAEVKKPGESLKISCKGSGYSFTSEWIAWVRQMPGKGLEWMGIIYPGDSDTRYSPSFQGQVTISADKSISTAYLQWSSLKASDTAMYFCARQRTFYYDSSDYFDYWGQGTLVTVSS VL: DIQMTQSPSSVSASVGDRVTITCRASQGISRWLAWYQQKPGKAPKLLIYAASSLQNGVPSRFSGSGSGTDFTLTISSLQPEDFATYFCQQADSFPRTFGQGTKLEIK shows binding signal fold over 6E7 parental at minimum 0.5 fold?
Result string: NOT MET

Query string: Would you say V31 (Fab, V domains shown) VH: EVQLVQSGAEVKKPGESLKISCKGSGYSFTSYWIAWVRQMPGKGLEWMGIIYPGDSETRYSPSFQGQVTISADKSISTAYLQWSSLKASDTAMYFCARQRTFYYDSSDYFDYWGQGTLVTVSS VL: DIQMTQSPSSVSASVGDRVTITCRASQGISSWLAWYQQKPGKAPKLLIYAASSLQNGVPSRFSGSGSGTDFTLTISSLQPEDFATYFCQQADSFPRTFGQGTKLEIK shows binding signal fold over 6E7 parental at minimum 0.5 fold?
Result string: MET
